Origin of values: PubChem BioAssay

test: compound binding in COS7 lysate, probe aLAP1, primary screen, cell lysate, small-molecule microarray (AID 1124); settings: probe aLAP1, fluorescence, higher = more signal;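 further: lysate comes from COS7 cells expressing LAP1 and is applied at 0.3 µg/mL; score merges spot fluorescence near 667 nm with signal-to-noise over triplicate slides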
Answer false (0) if composite z-score is under 0.3, and true (1) if it is 0.3 or more.

Example entries begin here.
> print(dat)
                                   molecule  class.assignment
1  CCCCC(O)C1C=CC2C(=O)NC(=O)C2N1Nc1ccccn1 (stereo not drawn)          true (1)
2  CCCCCCCCCCC(O)C1C=CC2C(=O)N(C)C(=O)C2N1N1CCCCC1 (stereo not drawn)          true (1)
3  Cc1ccc(S[C@]2(C(=O)NCCN3CCOCC3)CC(=O)N(C3CCCCC3)[C@@H]2c2ccc(CO)cc2I)cc1         false (0)
4  CCCC=C(CCC)[C@@H](NS(=O)(=O)c1ccc(Cl)cc1)c1ccccc1          true (1)
5  COc1ccc(C#Cc2ccc3c(c2)[C@]2(C(=O)N3)[C@H](c3ccc(OCCO)cc3)N3[C@H](c4ccccc4)[C@H](c4ccccc4)OC(=O)[C@H]3[C@@H]2C(=O)O)cc1          true (1)

-- ask Is composite z-score for COc1ccc([Si](C)(C)[C@H]2[C@H](CCn3cc([C@H](O)c4ccccc4)nn3)O[C@@]3(C(=O)N(c4ccccc4)c4ccccc43)[C@@H]2C)cc1 at or above 0.3?
-- reply false (0)

-- ask Form field: composite z-score at least 0.3? Entry: NCCCC[C@@H]1NC(=O)[C@H]2C[C@@H](C(=O)NCc3ccc(F)cc3)[C@@H](c3ccc(O)cc3)N2C1=O
-- reply true (1)

-- ask Test whether the molecule CC(C)CNC(=O)[C@@H]1c2ccccc2C(=O)N(C(C)C)[C@H]1c1ccc(CO)cc1 records composite z-score of 0.3 or higher.
-- reply true (1)
